# System: primary human hepatic stellate cells (donor 1)
# Assay summary: ACTA2 mRNA fold change vs DMSO (normalised to PSMB2); higher = more ACTA2 expression
# Conditions used: 48 h
Structures can show the parent of a compound that is named as a salt.
Recorded ACTA2 mRNA fold change by entry
Metric name: ACTA2 mRNA fold change

compound="CCN(CC)CCCCNc1ncc2cc(-c3c(Cl)cccc3Cl)c(NC(=O)NC(C)(C)C)nc2n1 (33.3333 µM)" readout_value=0.196
compound="CNCc1ccc(-c2cc(-c3nc(-c4ccc(S(=O)(=O)C(C)C)cc4)cnc3N)on2)cc1 (11.1 µM)" readout_value=0.0206
compound="CN1CCCN(C(c2ccccc2)c2ccc(Cl)cc2)CC1 (stereo not drawn) [Homochlorcyclizine dihydrochloride] (33.3333 µM)" readout_value=0.0102
compound="N=C(N)SCCc1ccc(OCc2ccc([N+](=O)[O-])cc2)cc1 [KB-R7943 mesylate] (33.3333 µM)" readout_value=0.0804
compound="Cn1cc(C2=C(c3ccc(Cl)cc3Cl)C(=O)NC2=O)c2ccccc21 (33.3333 µM)" readout_value=0.332
compound="CC(/C=C/C(=O)NO)=C\\[C@@H](C)C(=O)c1ccc(N(C)C)cc1 [Trichostatin A] (3.33333 µM)" readout_value=0.0381
compound="CNc1nccc(-c2cccnc2Oc2cc(C(=O)Nc3cccc(C(F)(F)F)c3)ccc2C)n1 (33.3333 µM)" readout_value=0.569
compound="O=S(=O)(NCCNC/C=C/c1ccc(Br)cc1)c1cccc2cnccc12 [H-89, Dihydrochloride] (11.1 µM)" readout_value=1.09
